- tgt: human IL-23R (Homo sapiens, UniProt Q5VWK5)
- Sequence (Q5VWK5 22-629): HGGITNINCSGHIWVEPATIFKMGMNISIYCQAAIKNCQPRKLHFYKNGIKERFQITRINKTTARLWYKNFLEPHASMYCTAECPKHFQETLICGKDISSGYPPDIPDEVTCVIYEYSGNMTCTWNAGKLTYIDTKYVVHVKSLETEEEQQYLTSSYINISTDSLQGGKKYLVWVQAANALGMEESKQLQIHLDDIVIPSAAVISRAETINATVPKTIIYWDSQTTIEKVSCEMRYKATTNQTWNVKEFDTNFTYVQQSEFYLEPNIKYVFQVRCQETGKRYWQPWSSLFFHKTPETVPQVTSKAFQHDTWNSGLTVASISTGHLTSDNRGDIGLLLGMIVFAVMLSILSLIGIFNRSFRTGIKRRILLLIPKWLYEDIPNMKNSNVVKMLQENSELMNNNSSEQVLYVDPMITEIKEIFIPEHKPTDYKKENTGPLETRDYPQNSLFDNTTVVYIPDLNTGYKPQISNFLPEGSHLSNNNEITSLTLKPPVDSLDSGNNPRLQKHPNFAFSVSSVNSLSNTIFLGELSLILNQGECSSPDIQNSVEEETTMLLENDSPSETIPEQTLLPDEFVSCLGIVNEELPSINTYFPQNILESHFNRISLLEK
- measurement.description: biochemical
- cond: read-out: % displacement (hIL-23R binding)
*1 amine or outer side, *2 acyl side, *3 side chain or, on linkers, in order; H or OH if unused. Where a SMILES comes first, the peptide text is derived from it. Bridges are numbered along the chain shown (N, C = ends). [ ]: non-standard residue; d: D form. 2Nal = N[C@@H](Cc1ccc2ccccc2c1)C(=O)O; AEF = NCCOc1ccc(C[C@H](N)C(=O)O)cc1; X1 = O=C(Cc1ccc(CN[*:1])cc1)[*:2]; 3Pal = N[C@@H](Cc1cccnc1)C(=O)O; αMeL = CC(C)C[C@](C)(N)C(=O)O; Dab = NCC[C@H](N)C(=O)O
Entries annotated with measured Emax
Number only, in %; omit the unit.

A selection of reference data follows.
Give a short answer stating reported Emax for CNC(=O)[C@H](Cc1cccnc1)NC(=O)[C@H](CCN)NC(=O)[C@@H]1CCC(=O)NCc2ccc(cc2)CC(=O)N[C@@H](C)C(=O)N[C@H]2CCC(=O)NCC[C@H](NC(=O)[C@H](CCC(N)=O)NC(=O)[C@H](Cc3c[nH]c4ccccc34)NC2=O)C(=O)N[C@@H](Cc2ccc(OCCN)cc2)C(=O)N[C@@H](Cc2c[nH]c3ncccc23)C(=O)NC(C)(C)C(=O)N1 [Compound 44] .
100

Complete the entry with Emax for CC(C)C[C@]1(C)NC(=O)[C@H](Cc2ccc3ccccc3c2)NC(=O)[C@H](Cc2ccc(OCCN)cc2)NC(=O)[C@@H]2CCNC(=O)CC[C@H](NC(=O)[C@H](CO)NC(=O)Cc3ccc(cc3)CNC(=O)CC[C@@H](C(=O)N[C@@H](CCN)C(=O)NCCc3cccnc3)NC1=O)C(=O)N[C@@H](Cc1c[nH]c3ccccc13)C(=O)N[C@@H](CCC(N)=O)C(=O)N2 [Compound 7]
102

Report measured Emax; entry is CC(C)C[C@]1(C)NC(=O)[C@H](Cc2ccc3ccccc3c2)NC(=O)[C@H](Cc2ccc(OCCN)cc2)NC(=O)[C@@H]2CCNC(=O)CC[C@H](NC(=O)[C@H](CO)NC(=O)Cc3ccc(cc3)CNC(=O)CC[C@@H](C(=O)NC[C@@H](N[C@@H](Cc3cccnc3)C(N)=O)C(F)(F)F)NC1=O)C(=O)N[C@@H](Cc1c[nH]c3ccccc13)C(=O)N[C@@H](CCC(N)=O)C(=O)N2 [Compound 16]
101

Further cases:
Query Emax for CNC(=O)[C@H](Cc1cccnc1)NC(=O)[C@H](CCN)NC(=O)[C@@H]1CCC(=O)NCc2ccc(cc2)CC(=O)N[C@@H](C)C(=O)N[C@H]2CCC(=O)NCC[C@H](NC(=O)[C@H](CCC(N)=O)NC(=O)[C@H](Cc3c[nH]c4ccccc34)NC2=O)C(=O)N[C@@H](Cc2c[nH]c3c(F)cccc23)C(=O)N[C@@H](Cc2ccc3ccccc3c2)C(=O)NC(C)(C)C(=O)N1 [Compound 47]
103

Please indicate Emax recorded for CNC(=O)[C@H](Cc1cccnc1)NC(=O)[C@H](CCC(N)=O)NC(=O)[C@@H]1CCC(=O)NCc2ccc(cc2)CC(=O)N[C@@H](CO)C(=O)N[C@H]2CCC(=O)NCC[C@H](NC(=O)[C@H](CCC(N)=O)NC(=O)[C@H](Cc3c[nH]c4ccccc34)NC2=O)C(=O)N[C@@H](Cc2ccc(OCCN)cc2)C(=O)N[C@@H](Cc2ccc3ccccc3c2)C(=O)N[C@@](C)(CC(C)C)C(=O)N1 [Compound 33] ([X1]SEWQ[Dab][AEF][2Nal][αMeL]EQ[3Pal]-NHMe; lactam 3-6, N-10)
92
